Experiment: in vitro
Settings: human, liver microsomes
measurementName: CLint scaled at 0.5 h

*Q* What value of CLint scaled at 0.5 h has been reported for the following compound? `COc1cccc(F)c1-c1nccc(C(=O)Nc2cc(F)c3c(cnn3C)c2N2C[C@@H](N)C[C@H]2CO)n1`
*A* > 18.3 mL/min/kg

* * *

Assay: physchem
Conditions: SGF buffer
measurementName: solubility
In your response, the unit should come after the numeric value.

*Q* What value of solubility has been reported for the following compound? `COc1cccc(F)c1-c1nccc(C(=O)Nc2cc(F)c3c(cnn3C)c2N2C[C@@H](N)C[C@H]2CO)n1`
*A* 350 µg/mL

Each recorded value in this set is attributed to ChEMBL document CHEMBL5223170.
